targetUnderTest: cynomolgus IL-13 (cynomolgus, UniProt Q0PW92 21-132)
Sequence (Q0PW92 entry or part of it): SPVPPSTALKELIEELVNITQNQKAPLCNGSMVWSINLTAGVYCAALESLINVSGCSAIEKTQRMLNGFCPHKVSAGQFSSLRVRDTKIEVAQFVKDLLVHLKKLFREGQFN
assayExplanation: cell-based or functional assay
attributeMeasured: Average IC50, IL-13-induced TARC production by A-549 cells
Report the figure along with its unit, number first.

stdin: Value lookup for Average IC50, IL-13-induced TARC production by A-549 cells; key = 29G5 (antibody, V domains shown) VH: QVTLKESGPGILQPSQTLSLTCSFSGFSLSTSDMGVDWIRQPSGKDLEWLAHIWWDDVKRYNPALKSRLTISKDTSSSQVFLMLASVDTADTATYYCARIVSSGYIYYALDYWGQGTSVTVSS VL: DIQMTQTASSLSASLGDRVTISCRASQDIRNYLNWYQRKPDGTVKLLIYYTSRLHSGVPSRFSGSGSGTDYSLTISNLEQEDIATYFCQQGNTLPLTFGGGTKLEIKR
stdout: 4.39 nM

stdin: Value lookup for Average IC50, IL-13-induced TARC production by A-549 cells; key = 5F1 (antibody, V domains shown) VH: QVQLQQSGAELARPGTSVKLSCKASGYTFTTYGISWVKQRTGQGLEWIGEIYPGSYNTYYNEKFRGKATLTADKSSSTAYMQLSSLTSEDSAVYFCSRWRTSYFSDYGYFDYWGQGTTLTVSS VL: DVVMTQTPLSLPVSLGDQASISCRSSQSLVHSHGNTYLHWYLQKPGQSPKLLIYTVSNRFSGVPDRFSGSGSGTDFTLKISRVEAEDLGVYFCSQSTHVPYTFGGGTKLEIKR
stdout: 1.88 nM

stdin: Value lookup for Average IC50, IL-13-induced TARC production by A-549 cells; key = 5D3 (antibody, V domains shown) VH: QVQLKESGPGLVAPSQSLSITCTVSGFSLTGYNINWVRQPPGKGLEWLGLIWGDGNTAFNSALKSRLSISKDNSKSQVFLKLNSLQTDDTARYYCARDGYYPYAIKYWGQGTSVTVSS VL: NIVLTQSPASLAVSLGQRATISCRASETVDSYGNSFMHWYQQKPGQPPKLLIYLASNLESGVPARFSGSGSRTDFTLTIDPVEADDAATYYCQQNNEDPRTFGGGTKLEIKR
stdout: 0.291 nM

stdin: Value lookup for Average IC50, IL-13-induced TARC production by A-549 cells; key = 13C5 (antibody, V domains shown, also called murine 13C5) VH: QVTLKESGPGILQPSQTLSLTCSFSGFSLSTSDMGVDWIRQPSGKGLEWLAHIWWDDVKRYNPALKSRLTISKDTSSSQVFLMLASVDTADTATYYCARTVSSGYIYYAMDYWGQGTSVTVSS VL: DIQMTQTASSLSASLGDRVTISCRASQDIRNYLNWYQRKPDGTVKLLIFYTSKLHSGVPSRFSGSGSGTDYSLTIRNLEQEDIATYFCQQGNTLPLTFGGGTKLEIKR
stdout: 5 nM

stdin: Value lookup for Average IC50, IL-13-induced TARC production by A-549 cells; key = 8B6 (antibody, V domains shown) VH: QVQLKESGPGLVAPSQSLSITCTVSGFSLTGHNINWVRQPPGKGLEWLGMIWGDGNTDFNSALKSRLSISKDNSKSQVFLKLNSLQTDDTARYYCARDGYYPYAIKFWGQGTSVTVSS VL: HIVLTQSPASLAVSLGQRATISCRASETVDSYGSSFLHWYQQKPGQPPKLLIYLASKLESGVPARFSGSGSRTDFTLTIDPVEADDAATYYCQQNNEGPRTFGGGSKLEIKR
stdout: 0.395 nM
